The measurements presented in this section are drawn from patent US20060234940A1.

- tgt: recombinant human DP IV, wild type (human) (UniProt P27487)
- Sequence (P27487 other isoform, or with tags, fused parts or gaps): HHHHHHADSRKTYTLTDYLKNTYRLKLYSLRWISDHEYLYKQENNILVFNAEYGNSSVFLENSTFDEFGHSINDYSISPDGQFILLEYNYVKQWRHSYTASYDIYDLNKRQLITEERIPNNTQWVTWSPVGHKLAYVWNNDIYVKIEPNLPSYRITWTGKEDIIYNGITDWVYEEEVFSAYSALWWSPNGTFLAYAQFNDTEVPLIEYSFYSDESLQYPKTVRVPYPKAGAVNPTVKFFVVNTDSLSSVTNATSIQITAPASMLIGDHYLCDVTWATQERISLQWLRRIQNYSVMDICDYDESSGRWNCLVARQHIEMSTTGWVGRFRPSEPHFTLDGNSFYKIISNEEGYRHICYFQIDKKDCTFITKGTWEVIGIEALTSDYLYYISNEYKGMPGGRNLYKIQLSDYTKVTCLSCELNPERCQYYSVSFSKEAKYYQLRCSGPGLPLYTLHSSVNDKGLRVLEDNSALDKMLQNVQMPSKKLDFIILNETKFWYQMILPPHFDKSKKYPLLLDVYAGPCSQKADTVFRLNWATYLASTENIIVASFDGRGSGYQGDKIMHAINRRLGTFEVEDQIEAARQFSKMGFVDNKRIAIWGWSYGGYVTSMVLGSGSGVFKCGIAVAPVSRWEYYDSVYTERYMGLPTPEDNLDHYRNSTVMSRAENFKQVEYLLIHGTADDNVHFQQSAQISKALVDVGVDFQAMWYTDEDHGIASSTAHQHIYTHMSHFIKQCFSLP
- experimental_protocol: MALDI-TOF MS, inhibition of DP IV-catalyzed truncation of the substrate GIP after preincubation with TFTSDY
quantity: Ki (µM)
A number alone suffices; assume µM.

I have this binder here, TFTSDY [hexapeptide TFTSDY] , and I need its recorded Ki.
14
